- System: OVCAR-8 ovarian
The reply should name one outcome from yes (active), no (inactive)

// below: answered molecules
Nc1ccc2c(c1)c(N)nn2C(=O)Nc1ccc(Cc2ccccc2)cc1 | no
CC1=C(C(=O)Nc2ccc(Cl)c(Cl)c2)C(c2ccccc2O)NC(=O)N1 (stereo not drawn) | no
CC/C=C\C/C=C\C[C@H](O)C/C=C1/C(=O)C=C[C@@H]1C/C=C\CCCC(=O)OC | no

// query Assay outcome for CSC1=NCC2(S1)c1ccccc1N(C(=O)OC(C)(C)C)C2N1CCCCC1 (stereo not drawn) : what was it?
// result no

// query Field: outcome | Entry: CC1CC2(C)CC(=O)C1C1C(=O)N(CCN3CCCCC3)C(=O)C12 (stereo not drawn)
// result no

// query // outcome(item) with item = `O=C(NCCCCCCCNC(=O)OCc1ccc2c(Cl)cc(Cl)c(O)c2n1)OCc1ccc2c(Cl)cc(Cl)c(O)c2n1`
// result yes

// query I would be grateful if you could indicate the recorded call for `Nc1[nH]c(=O)ncc1CO` .
// result no

// query Could you kindly confirm the outcome this assay logged for `O=C(Nc1ccccc1C(=O)N/N=C(\c1ccccc1)c1ccccn1)c1ccc(F)cc1` ?
// result yes
